Measured target: menin and MLL (menin, Flag tagged; biotinylated MLL1 peptide 1-46aa) (Homo sapiens)
Procedure text: biochemical
Experimental setup: IC50, binding inhibitory activity between menin and MLL, AlphaLISA; 1 nM menin, 10 nM biotinylated MLL1 peptide
Counter-ions that a name gives are not always drawn.
Outcome measure: log10 of IC50 (log10 of the value in nM)
Scale: log10; quantity: IC50; unit before log: nM

Known log10 of IC50 results, listed for orientation:
Molecule	Measured target	log10 of IC50
COc1nc(N(C)[C@H]2C[C@@H](NCc3ccc(-c4cnc(N(C)C)c(OC)c4)cc3)C[C@H]2O)c2cc(CC(F)(F)F)sc2n1 [Example 117, hydrochloride]	menin and MLL (menin, Flag tagged; biotinylated MLL1 peptide 1-46aa) (Homo sapiens)	0.15
CNC(=O)c1cccc(-c2ccc(CN[C@H]3CC[C@@H](N(C)c4ncnc5sc(CC(F)(F)F)cc45)C3)cc2)c1 [Example 66, hydrochloride]	menin and MLL (menin, Flag tagged; biotinylated MLL1 peptide 1-46aa) (Homo sapiens)	0.83
[2H]C([2H])([2H])Oc1cc(-c2ccc(CN[C@H]3C[C@@H](O)[C@@H](N(C)c4nc(OC)nc5sc(CC(F)(F)F)cc45)C3)cc2)nnc1OC([2H])([2H])[2H]	menin and MLL (menin, Flag tagged; biotinylated MLL1 peptide 1-46aa) (Homo sapiens)	-0.22

Can you share its log10 of IC50? I mean this molecule: COc1cc(-c2ccc(CN[C@H]3C[C@@H](O)[C@@H](N(C)c4ncnc5sc(CC(F)(F)F)cc45)C3)cc2)cnc1Cl [Example 65, hydrochloride]
0.40

Can you share its log10 of IC50? I mean this molecule: CNc1nc(N(C)[C@H]2C[C@@H](NCc3ccc(-c4cc(F)c(F)c(OC)c4)cc3)C[C@H]2O)c2cc(CC(F)(F)F)sc2n1 [Example 82, hydrochloride]
1.36

----------
Parameter log10 IC50: see the listing below.
Measured target: menin and MLL (menin, Flag tagged; biotinylated MLL1 peptide 1-46aa) (Homo sapiens)
Procedure text: biochemical
Experimental setup: cell free IC50 (nM), 1 nM menin, 10 nM biotinylated MLL1 peptide, AlphaLISA
Structures can show the parent of a compound that is named as a salt.
Scale: log10; quantity: IC50; unit before log: nM

Can you share its log10 IC50? I mean this compound: COc1cncc(-c2ccc(CN[C@@H]3C[C@H](N(C)c4ncnc5sc(CC(F)(F)F)cc45)C[C@@H]3O)cc2)c1 [Example 51, hydrochloride]
1.00

Can you share its log10 IC50? I mean this compound: O=C(NC1COC1)c1ccc(CN[C@H]2CCC[C@@H](Nc3ncnc4sc(CC(F)(F)F)cc34)C2)cc1 [Example 10, Hydrochloride]
2.30

Can you share its log10 IC50? I mean this compound: CN(c1ncnc2sc(CC(F)(F)F)cc12)[C@@H]1CC[C@H](NCc2ccc(N3CCc4ccccc43)cc2)C1 [Example 56, hydrochloride]
1.64

Can you share its log10 IC50? I mean this compound: COc1cncc(-c2ccc(CN[C@H]3CC[C@@H](N(C)c4ncnc5sc(C6COC6)cc45)C3)cc2)c1 [Example 48, hydrochloride]
3.15

Can you share its log10 IC50? I mean this compound: C=CC(=O)NCCCNC(=O)c1ccc(CN[C@H]2CC[C@@H](N(C)c3ncnc4sc(CC(F)(F)F)cc34)C2)cc1 [Example 6, Hydrochloride]
1.91

Can you share its log10 IC50? I mean this compound: CN(c1ncnc2sc(CC(F)(F)F)nc12)[C@@H]1CC[C@H](NCc2ccc3[nH]c(C#N)cc3c2)C1 [Example 3, Hydrochloride]
1.91

Can you share its log10 IC50? I mean this compound: CNc1nc(N(C)[C@H]2C[C@@H](NCc3ccc(-n4ccnc4)cc3)C[C@H]2O)c2cc(CC(F)(F)F)sc2n1 [Example 61, hydrochloride]
0.28

Can you share its log10 IC50? I mean this compound: COc1cncc(-c2ccc(CN[C@H]3CC[C@@H](N(C)c4ncnc5sc(C6CC6)cc45)C3)cc2)c1 [Example 45, hydrochloride]
1.52

Can you share its log10 IC50? I mean this compound: CN(c1ncnc2sc(CC(F)(F)F)cc12)[C@@H]1CC[C@H](NCc2cnn(-c3ccccc3)c2)C1 [Example 32, hydrochloride]
1.98

----------
Measured target: menin and MLL (menin, Flag tagged; biotinylated MLL1 peptide 1-46aa) (Homo sapiens)
Sequence (O00255 1-610): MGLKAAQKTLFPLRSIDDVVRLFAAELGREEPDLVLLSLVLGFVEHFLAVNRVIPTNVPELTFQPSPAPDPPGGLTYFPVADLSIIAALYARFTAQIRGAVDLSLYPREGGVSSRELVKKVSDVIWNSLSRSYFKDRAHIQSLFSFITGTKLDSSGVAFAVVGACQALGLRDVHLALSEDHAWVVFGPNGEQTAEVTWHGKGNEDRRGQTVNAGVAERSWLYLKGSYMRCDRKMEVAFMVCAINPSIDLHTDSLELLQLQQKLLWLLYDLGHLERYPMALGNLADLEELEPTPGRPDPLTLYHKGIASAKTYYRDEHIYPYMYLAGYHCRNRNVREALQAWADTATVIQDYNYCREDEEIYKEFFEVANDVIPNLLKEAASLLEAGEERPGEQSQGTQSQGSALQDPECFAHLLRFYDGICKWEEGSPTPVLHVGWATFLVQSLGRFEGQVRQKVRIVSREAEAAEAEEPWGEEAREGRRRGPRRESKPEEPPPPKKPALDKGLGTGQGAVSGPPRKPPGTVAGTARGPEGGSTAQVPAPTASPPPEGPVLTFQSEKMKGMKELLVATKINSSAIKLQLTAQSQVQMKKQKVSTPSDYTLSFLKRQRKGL
Procedure text: biochemical
Experimental setup: IC50, binding inhibitory activity between menin and MLL, AlphaLISA; 1 nM menin, 10 nM biotinylated MLL1 peptide
Counter-ions that a name gives are not always drawn.
Response field label takes yes when IC50 is strictly below 6 nM and no in all other cases.

Compound	Group label
CNc1nc(N(C)[C@H]2C[C@@H](NCc3ccc(-c4cncc5c4ccn5S(C)(=O)=O)cc3)C[C@H]2O)c2cc(CC(F)(F)F)sc2n1 [Example 64, hydrochloride]	yes

Does COc1cc(-c2ccc(CN[C@H]3C[C@@H](O)[C@@H](N(C)c4ncnc5sc(CC(F)(F)F)cc45)C3)cc2F)cnc1F [Example 74, hydrochloride] have IC50 strictly under 6 nM?
no

Does COc1cncc(-c2ccc(CN[C@H]3C[C@@H](O)[C@@H](N(C)c4ncnc5sc(CC(F)(F)F)cc45)C3)cc2)c1 [Example 129, Hydrochloride] have IC50 strictly under 6 nM?
yes

Does COc1nc(N(C)[C@H]2C[C@@H](NCc3ccc(-c4cnc(C#N)c(OC)c4)cc3)C[C@H]2O)c2cc(CC(F)(F)F)sc2n1 [Example 106, hydrochloride] have IC50 strictly under 6 nM?
yes

----------
Parameter GI50: see the listing below.
System: MV-4-11 cells
Procedure text: cells
Experimental setup: Homo sapiens, MV4-11, 168 h, read-out: GI50 (μM) Day7 MV4;11
Structures can show the parent of a compound that is named as a salt.

Known GI50 results, listed for orientation:
Compound	GI50
COc1cncc(-c2ccc(CN[C@@H]3C[C@H](Nc4ncnc5sc(CC(F)(F)F)cc45)C[C@H](c4ncco4)C3)cc2)c1 (single isomer, unassigned) [Example 19A, Hydrochloride]	0.295 µM
COc1cncc(-c2ccc(CN[C@H]3C[C@@H](Nc4ncnc5sc(CC(F)(F)F)cc45)C[C@@H](c4ncco4)C3)cc2)c1 (single isomer, unassigned) [Example 19B, Hydrochloride]	2.6 µM

Can you share its GI50? I mean this compound: COc1cncc(-c2ccc(CN[C@@H]3C[C@H](Nc4ncnc5sc(CC(F)(F)F)cc45)C[C@H](OC)C3)cc2)c1 (single isomer, unassigned) [Example 18A, Hydrochloride]
0.131 µM

Can you share its GI50? I mean this compound: COc1cncc(-c2ccc(CN[C@H]3C[C@@H](Nc4ncnc5sc(CC(F)(F)F)cc45)C[C@@H](OC)C3)cc2)c1 (single isomer, unassigned) [Example 18B, Hydrochloride]
1.47 µM

----------
Measured target: menin and MLL (menin, Flag tagged; biotinylated MLL1 peptide 1-46aa) (Homo sapiens)
Procedure text: biochemical
Experimental setup: cell free IC50 (nM), 1 nM menin, 10 nM biotinylated MLL1 peptide, AlphaLISA
Counter-ions that a name gives are not always drawn.
Outcome measure: IC50 (nM)
Give the value, in units of nM, as a plain number.

Molecule	Measured target	IC50 (nM)
CN(c1ncnc2sc(CC(F)(F)F)cc12)[C@@H]1CC[C@H](NCc2ccc(Nc3cnn(C)c3)cc2)C1	menin and MLL (menin, Flag tagged; biotinylated MLL1 peptide 1-46aa) (Homo sapiens)	33.8
COc1cncc(-c2ccc(CN[C@@H]3C[C@H](Nc4ncnc5sc(CC(F)(F)F)cc45)C[C@H](c4ncco4)C3)cc2)c1 (single isomer, unassigned) [Example 19A, Hydrochloride]	menin and MLL (menin, Flag tagged; biotinylated MLL1 peptide 1-46aa) (Homo sapiens)	33.5
COc1cncc(-c2ccc(CN[C@@H]3C[C@H](Nc4ncnc5sc(CC(F)(F)F)cc45)C[C@H](C(=O)N(C)C)C3)cc2)c1 (single isomer, unassigned) [Example 17B, Hydrochloride]	menin and MLL (menin, Flag tagged; biotinylated MLL1 peptide 1-46aa) (Homo sapiens)	13.3

Can you share its IC50? I mean this molecule: CN(c1ncnc2sc(CC(F)(F)F)cc12)[C@@H]1CC[C@H](NCc2ccc(S(=O)(=O)N3CCCCCC3)cc2)C1 [Example 59, hydrochloride]
33

Can you share its IC50? I mean this molecule: CN(c1ncnc2sc(CC(F)(F)F)cc12)[C@@H]1CC[C@H](NCC2CCCCC2)C1 [Example 28, hydrochloride]
1160

Can you share its IC50? I mean this molecule: CN(c1ncnc2sc(CC(F)(F)F)cc12)[C@@H]1CC[C@H](NCc2ccc(-c3cnc4ccoc4c3)cc2)C1 [Example 14, Hydrochloride]
27.4
